Target Of Assay: human uPA (Homo sapiens, UniProt P00749)
Construct: purchased ProsPec enz-264-c
Test Details: Inhibition of uPA catalytic activity, fluorogenic substrate
Assay type: biochemical
Measurement Setup: PEP333 leader-core peptide, ProcM-modified; 1.5 nM human uPA; 50 µM Z-Gly-Gly-Arg 7-amido-4-methylcoumarin; 10 mM Tris-HCl pH 7.4, 5% DMSO; 25°C, 30 min; fluorescence 355/460 nm; experiment repeated three times; read-out: inhibitory constant Ki
pKi: −log10 of the molar value. Ends that are not written are not given here.
Property Measured: pKi

* AICQIADATRTGENRKCLAAGPHHHHHH (also: sidechain bridge or staple (positions not given here)) [PEP333] | 6.25
